B1: FEM1A (parent)
chain: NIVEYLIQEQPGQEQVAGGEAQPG

# Variants of: B1
# Protocol Description: protein stability index of a GFP-peptide fusion (GPS, HEK-293T) (PSI 1-6); higher = more stable;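 note: lentivirally expressed fusions sorted by FACS into six bins by GFP to DsRed ratio, PSI derived from sequencing read proportions per bin multiplied by bin number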
# Experimental Conditions: c terminus: a fixed tail appended
Readout Type: protein stability index
Reply briefly: the number, and no unit.

As a guide, the following entries are already answered.
Item Sequence	protein stability index
NIVEYLIQEQPGQEQVAGGEACPG [Q22C]	4.58
NIVEYLIQEQPGQEQVAGSEAQPG [G19S]	4.65

Would you kindly look at the next entry?
Name the reported protein stability index value associated with the variant NIVEYLIQEQPGQEQVAGGEAKPG [Q22K]
4.08
